B1: TPR t1 (parent)
chain: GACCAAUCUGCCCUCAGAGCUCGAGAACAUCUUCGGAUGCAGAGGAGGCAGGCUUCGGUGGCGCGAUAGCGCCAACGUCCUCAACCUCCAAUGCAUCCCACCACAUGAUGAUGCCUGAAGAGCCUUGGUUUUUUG

Variants of: B1
ASSAY TEXT: polymerase ribozyme fitness, log enrichment relative to wild type (log ratio); higher = more active; in vitro selection for triplet polymerase activity
Measured polymerase ribozyme fitness (log ratio) accompanies every entry in the list below.

{"SEQUENCE CHANGE": "G48U C72A C97G", "polymerase ribozyme fitness (log ratio)": -5.25}
{"SEQUENCE CHANGE": "C62U C123U", "polymerase ribozyme fitness (log ratio)": 1.47}
{"SEQUENCE CHANGE": "U32C C40A", "polymerase ribozyme fitness (log ratio)": -0.464}

// query Look up polymerase ribozyme fitness (log ratio) for this variant: C31U G44C G69U C115U U130A
// result -4.82

// query Let us now turn to G10C A26G G69A U125A
// result -5.51

// query And C34U G110U ?
// result -4.07

// query Same lookup for C104A A108G U112A A118G G122U , please.
// result -5.36

// query Queued: C70A C124U U133C
// result 0.767

// query Now give it for C85G A111C too.
// result -3.12

// query Please answer likewise for C12G A83U C104A U125G
// result -2.42

// query Param item: C53A U106G A121U
// result 0.877
